tested on: NCI-H522 lung; experiment: NCI tumour cell line growth inhibition, 48 h
Measured TGI accompanies every entry in the list below.
MEASURE NAME: TGI (µM)

1. O=C1c2c(Br)sc(Br)c2[C@@H](Cl)[C@H]1Cl :: 10.9
2. COc1cc2cc(C(=O)N3CC(CCl)c4ccc([N+](C)(C)Cc5ccc([N+](=O)[O-])cc5)cc43)[nH]c2c(OC)c1OC (configuration not stated) :: 3.47
3. COC1=N[C@H](C(C)C)C(OC)=N[C@H]1Cc1ccc(C[C@@H]2N=C(OC)[C@@H](C(C)C)N=C2OC)s1 :: 63.2
4. Cc1c(Cl)c(=O)oc2cc(OC/C=C3\CCC(=O)O3)ccc12 :: 24.2
5. O=S(=O)(NCCNc1nccc(-c2c(-c3ccc(F)c(O)c3)nc3sccn23)n1)c1ccc(Cl)cc1 :: 18.6
6. CCN(CC)c1c(-c2ccccc2)n[nH]c1C(=O)OC :: 50.7
7. O=c1cc(-c2ccccc2)[nH]c2ccc(S)cc12 :: 64.5
8. O=NN1C(c2ccccc2)C2CCCC(C2=O)C1c1ccccc1 (configuration not stated) :: 46.4
9. Cc1cccc(NC(=O)O/N=C(\Cl)C(C)C)c1 :: 2.99
10. CCOC(=O)C(C)Sc1nnc(COc2ccc(Cl)cc2)n1-c1ccccc1 (configuration not stated) :: 5.16
11. CCCOc1cc2ccccc2cc1C(=O)Nc1nc(NC)c2c(ccc3nccc32)[nH]1 :: 0.219
12. N#CCCN(CCC#N)c1ccc(C(N=Nc2ccc(Cl)cc2)=Nc2ccccc2)cc1 :: 30.4
13. NCCCOc1cc2ccccc2cc1C(=O)Nc1ccc(Cl)cc1OC(=O)c1cc2ccccc2cc1OCCCN :: 0.639

====

test system: NCI-H460 lung; test: NCI tumour cell line growth inhibition, 48 h; in the data active means GI50 below about 0.43 µM; inactive means the rest
Classes used: active, inactive

1) NCCCCCNc1noc(Cc2c[nH]c3cc(Br)ccc23)n1 :: inactive
2) Cc1c(Cl)c(=O)oc2cc(OC/C=C3\CCC(=O)O3)ccc12 :: inactive
3) Cc1cc(C(=O)/C=C/c2ccc[nH]2)ccc1-n1ccc(C(F)(F)F)n1 :: inactive
4) Cc1ccc(C(=O)NCCCOc2ccc(N3C(N)=NC(N)=NC3(C)C)cc2Cl)cc1S(=O)(=O)F :: inactive
5) CCC1C(C)C=NN1c1nc(N)nc(C(C#N)=Nc2ccc(N(C)C)cc2)n1 (centres undefined) :: inactive
6) CN(C)C(=O)OCc1nc2c(N3CCOCC3)nc(-c3ccccc3)nc2n1C :: inactive
7) Cc1cc(C(=O)Nc2n[nH]c3ccccc23)n[nH]1 :: inactive
8) CCCOc1cc2ccccc2cc1C(=O)Nc1nc(NC)c2c(ccc3nccc32)[nH]1 :: active
9) Cc1ccc(S(=O)(=O)OCC#CCOS(=O)(=O)c2ccc(C)cc2)cc1 :: inactive

====

tested on: HOP-62 NSCLC; assay: NCI tumour cell line growth inhibition, 48 h; in the data active means GI50 below about 0.43 µM; inactive means the rest
Classes used: class 1 = active, class 0 = inactive

1. O=S(=O)(NCCNc1nccc(-c2c(-c3ccc(F)c(O)c3)nc3sccn23)n1)c1ccc(Cl)cc1 :: class 0
2. COc1ccc(C(C)c2cc(OC)c(OC)c(OC)c2)cc1 (stereo not drawn) :: class 1
3. CSc1ccc2c(c1)C(=O)c1c-2n(CCCN)c(=O)c2cc([N+](=O)[O-])ccc12 :: class 1

====

system: A498 renal; assay: NCI tumour cell line growth inhibition, 48 h
Measured TGI accompanies every entry in the list below.
MEASURE NAME: TGI (µM)

1) Nc1ccccc1C#C/C=C\C#CC#C/C=C\C#Cc1ccccc1N :: 20.6
2) CC[C@@]1(OC(=O)C(N)CCCCN)C(=O)OCc2c1cc1n(c2=O)Cc2cc3ccccc3nc2-1 (stereo not given in full) :: 0.455
3) CCN(CC)c1c(-c2ccccc2)n[nH]c1C(=O)OC :: 31.7
4) C[C@]12Cc3cnc(-c4ccccc4)nc3C[C@@H]1CC[C@@H]1[C@@H]2CC[C@@]2(C)[C@H]1CC[C@]2(C)O :: 43.2

====

Measured TGI accompanies every entry in the list below.
system: TK-10 renal; assay: NCI tumour cell line growth inhibition, 48 h
MEASURE NAME: TGI

1) Cc1ccc(C(=O)NCCCOc2ccc(N3C(N)=NC(N)=NC3(C)C)cc2Cl)cc1S(=O)(=O)F :: > 100 µM
2) CCCCN(CCCC)CCC(O)c1cc(-c2ccc(C(F)(F)F)cc2)nc(-c2ccc(C(F)(F)F)cc2)c1 (centres undefined) :: > 100 µM
3) Cn1nc2ccc([N+](=O)[O-])cc2[n+]1[O-] :: > 100 µM
4) NCCCOc1cc2ccccc2cc1C(=O)Nc1ccc(Cl)cc1OC(=O)c1cc2ccccc2cc1OCCCN :: 1.07 µM
5) O=C(O)C1CC=CCC1C(=O)Nc1cccc(O)c1 (centres undefined) :: > 100 µM
6) O=S(=O)(O)c1cc(S(=O)(=O)O)c2cc(N=Nc3c(O)ccc4ccccc34)ccc2c1 :: > 100 µM
7) CNCCN[C@@H]1c2cc3c(cc2[C@@H](c2cc(OC)c(O)c(OC)c2)[C@H]2C(=O)OC[C@@H]21)OCO3 :: 8.21 µM
8) COc1cccc(/C=C/c2nc3c(cnn3-c3ccccc3)c(=O)[nH]2)c1 :: > 100 µM
9) COc1cccc(-c2nn(-c3ccccc3)cc2-c2ccnc(NCCCNC(=O)c3cccc(C(F)(F)F)c3)c2)c1 :: 31.2 µM
10) c1ccc2cc3c(cc2c1)Nc1c2ccccc2nc2cccc-3c12 :: 3.28 µM
11) Cc1c2n(c3ccccc13)S(=O)(=O)c1ccccc1-2 :: 58.2 µM
12) CN(C)CCCNc1ccc2nnn3c4ccc(OC(=O)c5ccccc5)cc4c(=O)c1c23 :: 24.3 µM
13) O=C(/C=C/c1ccc(OCc2ccccc2)cc1)NCc1ccc(C(=O)NCCc2c[nH]c3ccccc23)cc1 :: > 43 µM
14) COC(=O)CN(CC(O)C(NC(C)=O)C(O)C=O)C(=O)OCc1ccccc1 (centres undefined) :: > 100 µM
15) O=[P+](O)c1ccccn1 :: > 100 µM
16) CSc1nc(Nc2ccccc2Cl)c2c(N)nn(C)c2n1 :: > 100 µM
17) NC1C=NNC1=O (centres undefined) :: > 100 µM
18) O=C(Nn1c(-c2cccs2)nc2ccc(I)cc2c1=O)c1ccccc1 :: 63.1 µM
19) COc1ccc(C2C(C#N)=C(S)N(C3OC(COC(C)=O)C(OC(C)=O)C(OC(C)=O)C3OC(C)=O)C(C)=C2C(C)=O)cc1 (centres undefined) :: > 100 µM
20) C/C=C/C/C=C/[C@H](C)C[C@H](O)[C@@H]1C[C@@H]2O[C@H]2/C=C/[C@@H]2OC(C)(C)O[C@H]2/C=C/C[C@H](C)CC(=O)O1 :: > 100 µM
21) CC(C)(C)C1CCC2c3c([nH]c4ncccc34)C3C(=O)N(c4ccccc4)C(=O)C3C2C1 (centres undefined) :: > 100 µM
22) N#CCCN(CCC#N)c1ccc(C(N=Nc2ccc(Cl)cc2)=Nc2ccccc2)cc1 :: 29.1 µM
23) O=C(O)[C@@H]1OCCOCCO[C@@H](C(=O)O)[C@H](C(=O)O)OCCOCCO[C@H]1C(=O)O :: > 100 µM
24) CNCC/C=C1\c2cc3c(cc2-c2c1c1cc(OC)c(OC)cc1c(=O)n2C)OCO3 :: 8.56 µM
25) CCc1c2cc(OC)c(OC)cc2cc2c3cc(OC)c(OC)cc3cc[n+]12 (tested in a mixture with another compound) :: > 100 µM
26) C[C@@H]1[C@H](O)CC2=C(CC[C@@H](O)C2(C)C)[C@@]1(CO)CCc1ccoc1 :: > 50 µM
27) O=C(CC(O)(C(F)(F)F)C(F)(F)Cl)CC(O)(C(F)(F)F)C(F)(F)Cl (centres undefined) :: 9.9 µM
28) CCOC(=O)C(Cc1c[nH]c2cc(N(CCO)CCO)ccc12)(NC(C)=O)C(=O)OCC :: > 1000 µM
29) O=c1c2cc(Br)cc(Br)c2nc(CCCl)n1-c1ccc(O)c([N+](=O)[O-])c1 :: 32.7 µM
30) Cc1ccc(S(=O)(=O)NC(=O)Nc2cccc(S(N)(=O)=O)c2)cc1 :: > 100 µM
31) O=C1Nc2cc(-c3cccc(O)c3)ccc2/C1=C/c1ccc[nH]1 :: 9.19 µM
32) COc1ccc(C(=O)NC2=C(Cl)C(=O)c3ccccc3C2=O)cc1 :: 7.7 µM
33) CC1C2CCC3C(O)C2(CC(O)C2(O)C1CC(O)C2(C)C)CC3(C)O (centres undefined) :: > 100 µM
34) CC1=CC(C)(c2c[nH]c3ccccc23)CC(C)(C)c2c1[nH]c1ccccc21 (centres undefined) :: > 100 µM
35) CNC(=O)N(CCC#N)CCN(C(=O)N(C)C)c1ccccc1 :: > 100 µM
36) COc1cccc2c1C1(O)C2CCCCCCCCCC12OCCCO2 (centres undefined) :: > 100 µM
37) C[C@]12CC[C@@H]3c4ccc(O)cc4CC[C@H]3[C@@H]1CC[C@@H]2NS(=O)(=O)c1ccc(Br)cc1 :: 12.2 µM
38) Cc1ccc(S(=O)(=O)OCC#CCOS(=O)(=O)c2ccc(C)cc2)cc1 :: 6.27 µM
39) Cc1ccc(S(=O)(=O)NC(=O)NCCc2ccccc2)cc1 :: > 100 µM
